Test system: Ran GTPase (GTP-bound) - importin-beta complex
protocol: disruptors of Ran-importin-beta complex formation – biochemical, FRET, CFP-Ran, YFP-importin-beta, homogeneous, primary screen (AID 2216);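 note: 0% = DMSO wells and 100% = Ran loaded with GDP instead of GTP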
measurement-setup: cell-free CFP-Ran/YFP-importin-beta FRET ratio; concentration not given here
About 3,300 (1.1%) of roughly 300,000 compounds were called active. About 6% were inconclusive and are not listed.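 Rule for the calls: active = more than half of the replicate wells show a fall in the fluorescence ratio signal beyond about 16% (limit read from the data, passing the limit was not always enough); inconclusive = exactly half of the replicate wells pass the set limit; inactive = fewer than half of replicates pass the limit.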 The full list was thinned out, with actives kept by preference.
Reply using exactly one outcome from active, inactive

Query :: What did this assay record as the result for Cc1nc2ccccc2c2oc(C(=O)NCC3CCCO3)cc12 (centres undefined) ?
Result :: inactive

Query :: What did this assay record as the result for "CCCNC(=O)CCn1cc(-c2ccc(OC)cc2)nc1CCN" ?
Result :: inactive

Query :: What did this assay record as the result for "Cc1nc2ccccc2c2oc(C(=O)NCCCN3CCC(C)CC3)cc12" ?
Result :: active

Query :: What did this assay record as the result for "Cn1cccc1-c1nc2ccccc2n1C" ?
Result :: inactive

* * *

Test system: Ran GTPase (GTP-bound) - importin-beta complex
protocol: disruptors of Ran-importin-beta complex formation – biochemical, FRET, CFP-Ran, YFP-importin-beta, homogeneous, primary screen (AID 2216);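 note: 0% = DMSO wells and 100% = Ran loaded with GDP instead of GTP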
measurement-setup: cell-free CFP-Ran/YFP-importin-beta FRET ratio; hits give high values; concentration not given here
The campaign covered roughly 300,000 compounds. About 3,300 (1.1%) were called active. Inconclusive results (about 6%) are left out. For the sample, actives were picked, then their nearest neighbours and some compounds at random.
measured-property: inhibition (%)
Express the result in % but write the number alone.

What the record says about "O=C(COC(=O)c1ncc(Cl)c(Cl)c1Cl)NNC(=O)c1ccccc1" : inhibition is 7.08

What the record says about "COC(=O)c1cccc(NS(C)(=O)=O)c1" : inhibition is 3.63

What the record says about "Cn1c(SCC(=O)c2ccccc2)ncc(C(=O)Nc2ccc(F)cc2)c1=O" : inhibition is 0.558

What the record says about "Nc1ccccc1/C=N\N=C/c1ccccc1N" : inhibition is 1.49

What the record says about CCCN1CC=C2C(C#N)=C(N)C(C#N)(C#N)C(c3cc(OC)ccc3OC)C2C1 (stereo unspecified) : inhibition is 36.6

What the record says about "CCC(=O)Nc1c(S(=O)(=O)c2ccccc2)c2nc3ccccc3nc2n1Cc1ccccc1" : inhibition is 22.2

* * *

System: Ran GTPase (GTP-bound) - importin-beta complex
protocol: disruptors of Ran-importin-beta complex formation – biochemical, FRET, CFP-Ran, YFP-importin-beta, homogeneous, primary screen (AID 2216);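 note: 0% = DMSO wells and 100% = Ran loaded with GDP instead of GTP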
measurement-setup: cell-free CFP-Ran/YFP-importin-beta FRET ratio; hits give high values; concentration not given here
Hit rate of the full screen: of about 300,000 compounds, about 3,300 (1.1%) were called active. Roughly 6% stayed inconclusive and do not appear here. Many of the other results were omitted from the sample, so actives are more common in it than they were.
Exercise: for every item that follows, state its recorded inhibition.
Express the result in % but write the number alone.

What the record says about "CCCn1nc(NS(=O)(=O)c2ccccc2)c2cc3cc(C)ccc3nc21" : inhibition is -1.51

What the record says about "CCOc1ccc(CCNC(=O)COC(=O)C2CCN(c3ccc(C(F)(F)F)cn3)CC2)cc1OCC" : inhibition is 0.153

What the record says about "CCCn1nc(NS(=O)(=O)c2ccc(F)cc2)c2cc3ccccc3nc21" : inhibition is 4.53

What the record says about "Cc1ccc(NC(=O)CSCC(=O)Nc2sccc2C#N)cc1" : inhibition is -2.13

What the record says about "CCCCN1C(=O)/C(=C2/Sc3ccc(Cl)cc3N2CC)SC1=S" : inhibition is 0.428

What the record says about CC(C)C1C2=C(CC(C)(C)CC2=O)ON1c1ccccc1 (stereo unspecified) : inhibition is 26.1

The reported numbers originate from PubChem BioAssay AID2216.
